Quick reference for pEC50 among some molecules
- targetSystem: human CB1 receptor (Homo sapiens, UniProt P21554)
- Sequence (P21554 whole entry): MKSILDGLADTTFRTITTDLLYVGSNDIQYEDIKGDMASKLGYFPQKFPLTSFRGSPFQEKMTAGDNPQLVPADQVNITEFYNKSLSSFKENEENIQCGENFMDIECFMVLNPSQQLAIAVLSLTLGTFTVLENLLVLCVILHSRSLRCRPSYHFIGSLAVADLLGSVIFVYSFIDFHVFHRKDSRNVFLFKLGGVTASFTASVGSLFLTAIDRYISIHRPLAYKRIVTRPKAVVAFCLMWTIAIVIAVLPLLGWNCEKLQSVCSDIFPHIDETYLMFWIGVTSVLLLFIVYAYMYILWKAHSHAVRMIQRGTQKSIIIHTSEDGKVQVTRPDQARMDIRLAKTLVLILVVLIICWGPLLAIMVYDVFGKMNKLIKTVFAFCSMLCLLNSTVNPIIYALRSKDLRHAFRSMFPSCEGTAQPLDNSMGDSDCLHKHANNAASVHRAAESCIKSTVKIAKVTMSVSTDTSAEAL
- methodNotes: [35S] GTPγS binding on membranes of CHO cells expressing the human CB1 receptor (agonism)
- Format: biochemical
- Parameters: expressed in transfected cells; membrane preparation
- experimentalSetup: GTPγS EC50, human CB1, CHO cell membranes
Reminder that pEC50 means the negative base-10 logarithm of the concentration expressed in mol/L.

Known results for molecules:
# lookup: human CB1 receptor (Homo sapiens, UniProt P21554) pEC50, key = CC(C)(C)C(NC(=O)c1nn(Cc2ccc(C#N)cc2F)c2ccccc12)C(=O)NCC(N)=O (stereo not shown) [Example 92]
6.58

Report measured pEC50 on human CB1 receptor (Homo sapiens, UniProt P21554); entry: CC(C)(C)[C@H](NC(=O)c1nn(Cc2ccc(F)cc2)c2ccccc12)C(=O)N[C@@H]1CC[C@@H](O)C1 [Example 289]
7.45

Next molecule, pEC50 to be filled in.
Enter recorded pEC50 with human CB1 receptor (Homo sapiens, UniProt P21554) for CC(C)(C)[C@H](NC(=O)c1nn(Cc2ccc(F)cc2F)c2ccccc12)C(=O)NCCC(N)=O [Example 472] here.
7.28

---

- targetSystem: human CB1 receptor (Homo sapiens, UniProt P21554)
- methodNotes: Human CB1 receptor binding, [3H] CP-55,940 displacement on HEK cell membranes
- Parameters: expressed in transfected cells; host or cells: HEK cells, doxycycline-induced; membrane preparation
- experimentalSetup: read-out: CB1 Ki
Recorded measurements of Ki, one per entry
# number only, unit nM dropped from output

Examples with their reported Ki follow.
Provide Ki value for the following compound: Cc1nnc(CNC(=O)[C@@H](NC(=O)c2nn(Cc3ccc(C#N)cc3F)c3c(F)c(F)ccc23)C(C)(C)C)o1 [Example 364]
20.9

State its Ki for this compound: CC(C)(C)[C@H](NC(=O)c1nn(Cc2ccc(F)cc2)c2ccccc12)C(=O)NCc1nc(-c2cnccn2)no1 [Example 418]
0.78

Respond only with Ki recorded for CC(C)(C)[C@H](NC(=O)c1nn(Cc2ccc(F)cc2)c2ccccc12)C(=O)N[C@H](CC(N)=O)C(N)=O [Example 290]
92

Please look at this compound and report its Ki: CCOC(=O)c1nc(CNC(=O)C(NC(=O)c2nn(Cc3ccc(F)cc3)c3ccccc23)C(C)(C)C)no1 (centres unmarked) [Example 135]
3.47

Continuing:
Look up and report measured Ki for this entry: CC(C)(C)[C@H](NC(=O)c1nn(Cc2ccccc2)c2ccc(-c3cccnc3)cc12)C(N)=O [Example 8]
118

// Input: CC(C)(C)C(NC(=O)c1nn(Cc2ccc(F)cc2)c2c(F)cccc12)C(=O)NCCNS(=O)(=O)C1CC1 (centres unmarked) [Example 186] . Output its Ki only.
0.19

Supply measured Ki of CC(C)(C)[C@H](NC(=O)c1nn(Cc2ccc(F)cc2)c2ccccc12)C(=O)NC[C@H]1CCCC[C@@H]1O [Example 253] in your reply.
4.5

Entry CC(C)(C)[C@H](NC(=O)c1nn(Cc2ccc(F)cc2)c2ccccc12)C(=O)NCC(=O)Nc1nncs1 [Example 519] needs its Ki filled in; supply it.
0.95

Specify reported Ki for the compound shown: CC(C)(C)[C@H](NC(=O)c1nn(Cc2ccc(F)cc2)c2ccccc12)C(=O)N1CCN(CC(O)CO)CC1 (some centres unmarked) [Example 233]
2.45

Assign Ki to the following record: CC(C)(C)[C@H](NC(=O)c1nn(Cc2ccc(F)cc2)c2c(F)c(F)ccc12)C(=O)NCc1nnc(C(N)=O)o1 [Example 328]
0.71

Fill in Ki for record Cc1cc2c(C(=O)N[C@H](C(=O)NCc3nnc(C(N)=O)o3)C(C)(C)C)nn(Cc3ccc(F)cc3)c2cc1F [Example 508]
2.71

Determine its reported Ki: CC(C)(C)[C@H](NC(=O)c1nn(Cc2ccc(C#N)cc2)c2c(F)cccc12)C(=O)N[C@H](CO)c1ccccc1 [Example 216]
225

Name the recorded Ki of the compound listed here: Cn1nc(CNC(=O)[C@@H](NC(=O)c2nn(Cc3ccc(F)cc3)c3ccccc23)C(C)(C)C)cc1C1CCC1 [Example 416]
9.26

Using the record for CC(C)(C)[C@H](NC(=O)c1nn(Cc2ccc(C#N)cc2)c2c(F)cccc12)C(=O)N[C@@H]1CCc2ccccc21 [Example 286] , state its measured Ki.
5.74

---

- targetSystem: human CB1 receptor (Homo sapiens, UniProt P21554)
- methodNotes: Human CB1 receptor binding, [3H] CP-55,940 displacement on HEK cell membranes
- Set-up: expressed in transfected cells; host or cells: HEK cells, doxycycline-induced; membrane preparation
- experimentalSetup: read-out: CB1 Ki
Measured pKi, listed per entry for reference.
Please note pKi is a logarithmic value: minus log10 of concentration in mol/L. Answer with that number alone.

Example entries begin here.
Report the value of pKi obtained on human CB1 receptor (Homo sapiens, UniProt P21554) for CC(C)(C)C(NC(=O)c1nn(Cc2ccc(C#N)cc2)c2ccccc12)C(=O)NCc1nnc(C(N)=O)o1 (stereo not shown) .
7.83

Supply pKi measured with human CB1 receptor (Homo sapiens, UniProt P21554) for CC(C)(C)[C@H](NC(=O)c1nn(Cc2ccc(F)cc2)c2ccccc12)C(=O)N1C[C@@H]2C[C@H]1CN2CC(O)CO (stereo partly shown) .
7.27

Check human CB1 receptor (Homo sapiens, UniProt P21554) data and give pKi for CC(C)(C)C(NC(=O)c1nn(Cc2ccc(F)cc2)c2ccccc12)c1nnc(NC(=O)C2CC2)o1 (stereo not shown) .
9.23

Others:
// output pKi; input CC(C)(C)C(NC(=O)c1nn(Cc2ccc(F)cc2)c2ccccc12)c1nnc(CC(N)=O)o1 (stereo not shown) ; system human CB1 receptor (Homo sapiens, UniProt P21554)
8.52

Report the value of pKi obtained on human CB1 receptor (Homo sapiens, UniProt P21554) for COc1cc(CNC(=O)[C@@H](NC(=O)c2nn(Cc3ccc(C#N)cc3)c3cc(F)ccc23)C(C)(C)C)on1 .
6.56

Name the recorded pKi of CC(C)(C)[C@H](NC(=O)c1nn(Cc2ccc(C#N)cc2F)c2ccccc12)C(=O)NCCNS(=O)(=O)C1CC1 , assay system human CB1 receptor (Homo sapiens, UniProt P21554).
9.01

Give pKi for CC(C)(C)[C@H](NC(=O)c1nn(Cc2ccc(F)cc2)c2ccccc12)C(=O)NCCOc1ccnc(N)n1 tested on human CB1 receptor (Homo sapiens, UniProt P21554).
7.87

Name the value of pKi reported for CC(C)(C)[C@H](NC(=O)c1nn(Cc2ccc(F)cc2)c2ccccc12)C(=O)N1CCC(O)(CNC(=O)C2CC2)CC1 when tested on human CB1 receptor (Homo sapiens, UniProt P21554).
7.50

Look up and report measured pKi (human CB1 receptor (Homo sapiens, UniProt P21554)) for the following compound: CCNC(=O)OC1CCN(C(=O)[C@@H](NC(=O)c2nn(Cc3ccc(F)cc3)c3ccccc23)C(C)(C)C)CC1
8.64

Supply pKi measured with human CB1 receptor (Homo sapiens, UniProt P21554) for CC(C)(C)[C@H](NC(=O)c1nn(Cc2ccccc2)c2cc(-c3cccnc3)ccc12)C(N)=O .
8.06

Provide measured pKi on human CB1 receptor (Homo sapiens, UniProt P21554) for CC(C)(C)[C@H](NC(=O)c1nn(Cc2ccc(F)cc2)c2ccccc12)C(=O)NCCNS(=O)(=O)c1ccc(C#N)cc1 please.
9.03

Enter pKi (test system human CB1 receptor (Homo sapiens, UniProt P21554)) for CC(C)(C)[C@H](NC(=O)c1nn(Cc2ccc(F)cc2)c2ccccc12)C(=O)NCCc1nc2ccccc2c(=O)[nH]1
7.62

Recall the reported pKi of CC(C)(C)C(NC(=O)c1nn(Cc2ccc(F)cc2)c2ccccc12)c1nnc(NC(N)=O)o1 (stereo not shown) when tested on human CB1 receptor (Homo sapiens, UniProt P21554).
9.15

---

- targetSystem: human CB1 receptor (Homo sapiens, UniProt P21554)
- methodNotes: [35S] GTPγS binding on membranes of CHO cells expressing the human CB1 receptor (agonism)
- Format: biochemical
- Parameters: expressed in transfected cells; membrane preparation
- experimentalSetup: GTPγS EC50, human CB1, CHO cell membranes
property: log10 EC50 (log10 of the value in nM)
Reminder: these figures are log10 of reported EC50, in nM before transformation.

Look up and report measured log10 EC50 for this entry: CC(C)(C)[C@H](NC(=O)c1nn(Cc2ccc(C#N)cc2F)c2c(F)cccc12)C(N)=O
0.66

Below: the item to evaluate.
Consider the compound CC(C)(C)[C@H](NC(=O)c1nn(Cc2ccc(C#N)cc2)c2c(F)cccc12)C(=O)N1CC(C(N)=O)C1 . State its measured log10 EC50.
1.69

---

- targetSystem: human CB1 receptor (Homo sapiens)
- methodNotes: Human CB1 receptor binding, [3H] CP-55,940 displacement on HEK cell membranes
- Set-up: expressed in transfected cells; host or cells: HEK cells, doxycycline-induced; membrane preparation
- experimentalSetup: CB1 Ki
property: Ki

Before answering, review these 2 worked examples.
Could you please provide reported Ki for COc1cc(C#N)ccc1Cn1nc(C(=O)N[C@H](C(=O)NC[C@H](O)CO)C(C)(C)C)c2ccccc21 ? Thanks!
> 400 nM

// Input: CC(C)(C)[C@H](NC(=O)c1nn(Cc2ccc(C#N)cc2)c2ccc(Cl)cc12)C(=O)NCC(N)=O . Output its Ki only.
> 400 nM

Next:
Quote Ki reported for CC(C)(C)[C@H](NC(=O)c1nn(Cc2ccc(C#N)cc2)c2ccccc12)C(=O)N1CCS(=O)(=O)CC1 please.
> 400 nM
